- assayOverview: Tanguay_ZF_120hpf_OTIC_legacy: (Legacy) Oregon State University Tanguay Lab 120 Hour Post-fertilization zebrafish Assay for Otic Vesicle Malformation (AID 2283639)
Inconclusive results are not listed. Activity calls are given as the source filed them. The calls were made as follows: active = hit-call score of the fitted dose curve at least 0.9, where 1 is the maximum; inconclusive = response in the unintended direction; inactive = score below 0.9.
Respond only with the outcome that fits, drawn from active, inactive

Please review the following examples before continuing.
In [3]: df
Out[3]:
                                   molecule  grouplabel
0                             Cc1cccc(N)c1N    inactive
1  CC(C)(C)C(O)(CCc1ccc(Cl)cc1)Cn1cncn1 (configuration not stated)    inactive
2  COc1cc(C=O)cc2c1[C@H](COC(N)=O)[C@]1(OC(C)=O)ON2C[C@H]2[C@@H]1N2C(C)=O    inactive

Q: Hi, sorry to bother you, what did the test record for O=C(N[C@H](c1ccccc1)[C@@H]1CN2CCC1CC2)c1c(Cl)ccc(C(F)(F)F)c1Cl ?
Ans: inactive

Q: So what was the verdict on ClC1=C(Cl)C2(Cl)C3C(Cl)C=CC3C1(Cl)C2(Cl)Cl (configuration not stated) in this test?
Ans: inactive

Q: Field: outcome | Entry: CN(C)c1ccc(C(=O)c2ccc(N(C)C)cc2)cc1
Ans: active

Q: Given [Cl-].[Cl-].[Hg+2] , state the outcome it received in this test.
Ans: active
